molecular target: human RIOK2 protein (Homo sapiens, UniProt Q9BVS4); construct: glutathione S-transferase is fused to N-terminal of a full-length human RIOK2 protein; GST (glutathione S-transferase) (N); purchased CarnaBio, Inc; host or cells: baculovirus-Sf21 cell expression system; test: RIOK2 autophosphorylation ELISA (Test Example 4); format: biochemical; conditions: read-out: Inhibitory activity at 10 μM (%)
Sequence (Q9BVS4 whole entry, the tested form may be a part): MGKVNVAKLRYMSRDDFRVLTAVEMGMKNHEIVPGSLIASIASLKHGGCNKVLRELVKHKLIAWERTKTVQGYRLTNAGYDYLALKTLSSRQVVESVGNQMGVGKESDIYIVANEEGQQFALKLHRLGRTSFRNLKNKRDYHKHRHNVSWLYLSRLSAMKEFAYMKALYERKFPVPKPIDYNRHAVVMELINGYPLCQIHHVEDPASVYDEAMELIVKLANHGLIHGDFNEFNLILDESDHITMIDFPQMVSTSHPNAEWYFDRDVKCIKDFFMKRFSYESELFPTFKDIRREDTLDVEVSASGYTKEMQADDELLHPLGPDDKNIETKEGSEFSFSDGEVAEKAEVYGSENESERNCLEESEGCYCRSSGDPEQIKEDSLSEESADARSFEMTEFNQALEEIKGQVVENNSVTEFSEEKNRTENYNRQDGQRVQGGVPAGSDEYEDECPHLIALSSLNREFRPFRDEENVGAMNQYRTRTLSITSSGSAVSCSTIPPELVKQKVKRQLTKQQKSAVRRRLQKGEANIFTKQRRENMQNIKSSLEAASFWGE
experimental_readout: inhibition at 10 µM (%)

P. CCN(CC)CCNC(=O)c1c(C)[nH]c(/C=C2\C(=O)Nc3ccc(-c4cnn(-c5cccnc5)c4)cc32)c1C
Q. Cc1[nH]c(/C=C2\C(=O)Nc3ccc(-c4cnn(-c5ccccc5)c4)cc32)c(C)c1C(=O)NCCc1ncc[nH]1
Incoming: Which value of inhibition at 10 µM is smaller, the one for P or the one for Q ? Return value: the label identifying the chosen record.
Outgoing: Q
(Q: 25%, P: 82%)

----------
target: human RIOK2 protein (Homo sapiens, UniProt Q9BVS4); construct: glutathione S-transferase is fused to N-terminal of a full-length human RIOK2 protein; GST (glutathione S-transferase) (N); purchased CarnaBio, Inc; host or cells: baculovirus-Sf21 cell expression system; assay: RIOK2 autophosphorylation ELISA (Test Example 4); assay type: biochemical; settings: read-out: Inhibitory activity at 10 μM (%)
experimental_readout: inhibition at 10 µM (%)

# count of solved cases: 6
structure_as_smiles | study_target | inhibition at 10 µM / %
Cc1[nH]c(/C=C2\C(=O)Nc3ccc(-c4cnn(-c5ccccn5)c4)cc32)c(C)c1C(=O)NCCN1CCCC1 | human RIOK2 protein (Homo sapiens, UniProt Q9BVS4) | 91
CCN(CC)CCCNC(=O)c1c(C)[nH]c(/C=C2\C(=O)Nc3ccc(-c4cnn(-c5ccccc5)c4)cc32)c1C | human RIOK2 protein (Homo sapiens, UniProt Q9BVS4) | 96
CCN(CC)CCNC(=O)c1c(C)[nH]c(/C=C2\C(=O)Nc3ccc(-c4ccnn4-c4ccccn4)cc32)c1C | human RIOK2 protein (Homo sapiens, UniProt Q9BVS4) | 93
CCN(CC)CCNC(=O)c1c(C)[nH]c(/C=C2\C(=O)Nc3ccc(-c4ccnn4-c4ccccc4)cc32)c1C | human RIOK2 protein (Homo sapiens, UniProt Q9BVS4) | 100
Cc1[nH]c(/C=C2\C(=O)Nc3ccc(-c4cnn(-c5ccccc5)c4)cc32)c(C)c1C(=O)NC1(CN2CCCCC2)CC1 | human RIOK2 protein (Homo sapiens, UniProt Q9BVS4) | 107
CCN(CC)CCNC(=O)c1c(C)[nH]c(/C=C2\C(=O)Nc3ccc(-c4cnn(-c5cnccn5)c4)cc32)c1C | human RIOK2 protein (Homo sapiens, UniProt Q9BVS4) | 95

1. CCN(CC)CCNC(=O)c1c(C)[nH]c(/C=C2\C(=O)Nc3ccc(-c4ccnn4-c4ccc(F)cc4)cc32)c1C
2. CCN(CC)CCNC(=O)c1c(C)[nH]c(/C=C2\C(=O)Nc3ccc(-c4cnn(C5CCOCC5)c4)cc32)c1C
Incoming: Which value of inhibition at 10 µM is smaller, the one for 1 or the one for 2 ? Return value: the label identifying the chosen record.
Outgoing: 2

----------
biological target: human RIOK2 protein (Homo sapiens); construct: glutathione S-transferase is fused to N-terminal of a full-length human RIOK2 protein; GST (glutathione S-transferase) (N); purchased CarnaBio, Inc; host or cells: baculovirus-Sf21 cell expression system; assay: RIOK2 autophosphorylation ELISA (Test Example 4); assay type: biochemical; conditions: read-out: Inhibitory activity at 10 μM (%)
experimental_readout: inhibition at 10 µM (%)

molecule | study_target | inhibition at 10 µM / %
Cc1[nH]c(/C=C2\C(=O)Nc3ccc(-c4cnn(-c5ccccc5)c4)cc32)c(C)c1C(=O)NCc1nc2ccccc2[nH]1 [Example 99] | human RIOK2 protein (Homo sapiens) | 79
CCN(CC)CCNC(=O)c1c(C)[nH]c(/C=C2\C(=O)Nc3ccc(-c4cnn(-c5ccccc5)c4)cc32)c1C [Example 4] | human RIOK2 protein (Homo sapiens) | 94
CCN(CC)CCNC(=O)c1c(C)[nH]c(/C=C2\C(=O)Nc3ccc(-c4cnn(-c5ccccn5)c4)cc32)c1C [Example 32] | human RIOK2 protein (Homo sapiens) | 86

FYI, the data here is from patent US20190241569A1.
